test-target: NRAS Q61K (Homo sapiens (Human), UniProt P01111+P62937, Q61K)
Sequence (P01111 whole entry Q61K): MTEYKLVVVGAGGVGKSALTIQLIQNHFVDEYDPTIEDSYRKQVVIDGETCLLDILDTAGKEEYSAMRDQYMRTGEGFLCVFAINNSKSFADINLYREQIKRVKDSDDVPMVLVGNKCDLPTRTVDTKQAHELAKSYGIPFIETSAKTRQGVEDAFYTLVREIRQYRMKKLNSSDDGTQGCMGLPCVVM
Sequence (P62937 whole entry): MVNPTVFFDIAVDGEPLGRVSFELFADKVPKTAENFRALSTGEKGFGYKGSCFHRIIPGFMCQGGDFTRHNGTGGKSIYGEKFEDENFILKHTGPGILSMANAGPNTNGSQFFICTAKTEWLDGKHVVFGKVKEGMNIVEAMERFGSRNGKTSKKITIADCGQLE
assay-method-text: Ras-Raf (BRAF RBD) disruption / FRET / MOA assay, NRAS Q61K
Type: biochemical
measurement-setup: NRAS Q61K; Ras-Raf disruption/FRET/MOA assay; read-out: IC50* NRAS Q61K FRET data
pIC50: −log10 of the molar value.

{"molecule": "C=CC(=O)N1CC[C@H](C(=O)N(C)[C@H](C(=O)N[C@H]2CC3=NN=C(S3)c3ccc4c(c3)c(c(-c3cccnc3[C@H](C)OC)n4CC)CC(C)(C)COC(=O)[C@@H]3CCCN(N3)C2=O)C(C)C)C1 (atropisomer, axis not shown) [Example A248]", "pIC50": "< 5.00"}
{"molecule": "C=CC(=O)N1CC[C@H](C(=O)N(C)[C@H](C(=O)N[C@H]2Cc3nc(ns3)-c3ccc4c(c3)c(c(-c3cncnc3)n4CC)CC(C)(C)COC(=O)[C@@H]3CCCN(N3)C2=O)C(C)C)C1 [Example A285]", "pIC50": "< 5.00"}
{"molecule": "C=CC(=O)N1CC[C@H](C(=O)N(C)[C@H](C(=O)N[C@H]2Cc3cc(O)cc(c3)-c3ccc4nc(-c5cccnc5[C@H](C)OC)n(c4c3)CC(C)(C)COC(=O)[C@@H]3CCCN(N3)C2=O)C(C)C)C1 [Example A242]", "pIC50": "< 5.00"}
{"molecule": "C=CC(=O)Nc1cnc(OC[C@H](C(=O)N[C@H]2Cc3cccc(c3)-c3ccc4c(c3)c(c(-c3cccnc3[C@H](C)OC)n4CC)CC(C)(C)COC(=O)[C@@H]3CCCN(N3)C2=O)C(C)C)n1C (atropisomer, axis not shown) [Example A600]", "pIC50": "5.00 to 6.00"}
